# Assayed target: Polyunsaturated fatty acid 5-lipoxygenase (Homo sapiens) (UniProt P09917)
# Sequence (P09917 whole entry): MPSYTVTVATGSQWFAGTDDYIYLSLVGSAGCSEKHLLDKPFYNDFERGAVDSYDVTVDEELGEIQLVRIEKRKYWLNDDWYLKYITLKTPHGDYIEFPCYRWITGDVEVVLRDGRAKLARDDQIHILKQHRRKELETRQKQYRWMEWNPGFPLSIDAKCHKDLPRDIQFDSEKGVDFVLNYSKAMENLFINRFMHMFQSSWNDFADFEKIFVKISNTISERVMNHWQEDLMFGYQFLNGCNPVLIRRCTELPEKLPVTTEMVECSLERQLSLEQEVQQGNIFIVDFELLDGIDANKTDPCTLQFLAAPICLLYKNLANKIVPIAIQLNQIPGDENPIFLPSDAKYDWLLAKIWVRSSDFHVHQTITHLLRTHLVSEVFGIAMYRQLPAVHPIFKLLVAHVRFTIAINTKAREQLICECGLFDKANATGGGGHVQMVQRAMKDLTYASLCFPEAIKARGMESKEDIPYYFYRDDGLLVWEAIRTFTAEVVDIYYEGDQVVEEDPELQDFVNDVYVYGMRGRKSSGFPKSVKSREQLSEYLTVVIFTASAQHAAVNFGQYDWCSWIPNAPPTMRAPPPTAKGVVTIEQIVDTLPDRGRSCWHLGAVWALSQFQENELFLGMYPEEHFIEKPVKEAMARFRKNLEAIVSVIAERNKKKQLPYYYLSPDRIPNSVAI
# Experimental protocol: Inhibition of 5-LOX-mediated LTB4 production from stimulated human neutrophile granulocytes at 50 uM after 10 mins by EIA
Activity calls are given as the source filed them. The rule behind the calls is not given here.
Measurement name: inhibition

Consider the worked cases shown below.
molecule=C/C=C(/C)C(=O)Oc1c(OC)c(OC)cc2c1-c1c(cc(OC)c(OC)c1OC)C[C@](C)(O)[C@@H](C)C2 measurement_name=inhibition experimental_value=inactive
molecule=C/C=C(\C)C(=O)Oc1c(OC)c(OC)cc2c1-c1c(cc(OC)c(OC)c1OC)C[C@](C)(O)[C@@H](C)C2 measurement_name=inhibition experimental_value=inactive
molecule=COc1cc2c(c(OC)c1OC)-c1c(cc(OC)c(OC)c1OC)C[C@](C)(O)[C@@H](C)C2 measurement_name=inhibition experimental_value=inactive
molecule="CC(O)C1(C)Cc2cc(O)c(O)c(O)c2-c2c(cc(O)c(O)c2O)C1 (stereo not given)" measurement_name=inhibition experimental_value=37.3%

Q. // inhibition lookup, key: COc1cc2c(c(OC)c1OC)-c1c(cc3c(c1OC)OCO3)C[C@H](C)[C@](C)(O)C2
A. inactive

* * *

# Assayed target: Prostaglandin G/H synthase 2 (Ovis aries)
# Experimental protocol: Inhibition of ram seminal vesicle COX2 at 50 uM assessed as PGE2 level by EIA
# Format: tissue-based
Active and inactive are the calls of the source. The calls are words filed in the database; no cut-off is given here.
Measurement name: inhibition

query_smiles=C/C=C(/C)C(=O)Oc1c(OC)c(OC)cc2c1-c1c(cc(OC)c(OC)c1OC)C[C@](C)(O)[C@@H](C)C2 experimental_value=inactive
query_smiles=C/C=C(\C)C(=O)Oc1c(OC)c(OC)cc2c1-c1c(cc(OC)c(OC)c1OC)C[C@](C)(O)[C@@H](C)C2 experimental_value=inactive
query_smiles=COc1cc2c(c(OC)c1OC)-c1c(cc3c(c1OC)OCO3)C[C@H](C)[C@](C)(O)C2 experimental_value=inactive
query_smiles=COc1cc2c(c(OC)c1OC)-c1c(cc(OC)c(OC)c1OC)C[C@](C)(O)[C@@H](C)C2 experimental_value=inactive

Q. // inhibition lookup, key: COc1cc2c(c(O)c1O)-c1c(cc(OC)c(O)c1O)C[C@](C)(O)[C@@H](C)C2
A. inactive

* * *

# Assayed target: UniProt:P09917
# Experimental protocol: Inhibition of 5-LOX-mediated LTB4 production in stimulated human neutrophile granulocytes after 10 mins by EIA
For each of the molecules below, state its pIC50.
Field pIC50 (float): negative decimal logarithm of the concentration in molar.

Q. // pIC50 lookup, key: COc1cc2c(c(O)c1O)-c1c(cc(OC)c(O)c1O)CC(C)(C(C)O)C2 (configuration not stated)
A. 5.38

Q. // pIC50 lookup, key: COc1cc2c(c(OC)c1OC)-c1c(cc(OC)c(OC)c1OC)CC(C)(C(C)I)C2 (configuration not stated)
A. 5.35
